molecular target: T1, human TSLP (human, UniProt Q969D9 29-159); experiment: ELISA, plate coated with human TSLP, test antibodies as human IgG1
T1 construct: used biotinylated in some assays; also called hTSLP; recombinant human TSLP
T1 sequence (Q969D9 29-159 R127A/R130S limits assumed): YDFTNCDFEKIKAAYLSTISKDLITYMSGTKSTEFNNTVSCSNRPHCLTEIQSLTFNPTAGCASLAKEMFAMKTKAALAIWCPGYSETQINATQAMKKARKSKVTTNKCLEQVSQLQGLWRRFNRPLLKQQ
endpoint-name: EC50 (read off the curve)

Solved entries (count: 3):
INSERT INTO measurements (binder, endpoint_name, recorded_result) VALUES
  ('TSLP-0106 (antibody, V domains shown) VH: QVQLQESGPGLVKPSETLSLTCTVSGYSISSGYGWSWIRQPPGKGLEWIGYISYYGSISYNPSLKSRVTISVDTSKNQFSLKLSSVTAADTAVYYCARTNLLYFDSWGQGTLVTVSS VL: EIVMTQSPATLSLSPGERATLSCRASQSVSNNLAWYQQKPGQAPRLLIYDASSRATGIPARFSGSGSGTDFTLTISSLEPEDFAVYYCQQYSDWPQYTFGQGTKVEIK', 'EC50 (read off the curve)', '~0.05 µg/mL'),
  ('TSLP-01 (antibody, V domains shown, also called parent antibody TSLP-01) VH: QVQLQESGPGLVKPSETLSLTCAVSGYSISSGYGWSWIRQPPGKGLEWIGYISYYGSISYNPSLKSRVTISRDTSKNQFSLKLSSVTAADTAVYYCARTNLLYFDSWGQGTLVTVSS VL: EIVMTQSPATLSLSPGERATLSCRASQSVSNNLAWYQQKPGQAPRLLIYDASSRATGIPARFSGSGSGTDFTLTISSLEPEDFAVYYCQQYSDWPQYTFGQGTKVEIK', 'EC50 (read off the curve)', '~0.03 µg/mL'),
  ('TSLP-0104 (antibody, V domains shown) VH: QVQLQESGPGLVKPSETLSLTCAVSGYSISSGYGWSWIRQPPGKGLEWIGYISYYGSISYNPSLKSRVTISVDTSKNQFSLKLSSVTAADTAVYYCARTNLLYFDSWGQGTLVTVSS VL: EIVMTQSPATLSLSPGERATLSCRASQSVSNNLAWYQQKPGQAPRLLIYDASSRATGIPARFSGSGSGTDFTLTISSLEPEDFAVYYCQQYSDWPQYTFGQGTKVEIK', 'EC50 (read off the curve)', '~0.04 µg/mL');

Field: next binder
In: Item TSLP-0102 (antibody, V domains shown) VH: QVQLQESGPGLVKPSETLSLTCTVSGYSISSGYGWSWIRQPPGKGLEWIGYISYYGSISYNPSLKSRVTISRDTSKNQFSLKLSSVTAADTAVYYCARTNLLYFDSWGQGTLVTVSS VL: EIVMTQSPATLSLSPGERATLSCRASQSVSNNLAWYQQKPGQAPRLLIYDASSRATGIPARFSGSGSGTDFTLTISSLEPEDFAVYYCQQYSDWPQYTFGQGTKVEIK has what recorded EC50 (read off the curve)?
Out: ~0.04 µg/mL
